Origin of values: paper PMC3655264

target: α^PIP-Core (AP2 core with mutations in the PtdIns4,5P2-binding site on α) (UniProt P63010 1-592; P84092 1-236; P84092 237-435; P62743 1-142); test: SPR; liposomes with 10% PtdIns4,5P2 + 1% TGN38
Where no end group is shown, it is not given here. The star is where a group is joined. MPB‑DPPE = 1,2-dipalmitoyl-sn-glycero-3-phosphoethanolamine-N-[4-(p-maleimidophenyl)butyramide], CCCCCCCCCCCCCCCC(=O)OC[C@H](COP(=O)(O)OCCNC(=O)CCCc1ccc(N2C(=O)CC(*)C2=O)cc1)OC(=O)CCCCCCCCCCCCCCC
QUANTITY: Kd

BINDER	QUANTITY	RECORDED MEASUREMENT
C(MPB‑DPPE)KVTRRPKASDYQRL [lipid-linked TGN38 sorting motif peptide (CKVTRRPKASDYQRL) displayed in liposomes]	Kd	> 30 µM
